B1: REST corepressor 3, residues 87 to 134; numbered along this chain, Q9P2K3 (parent)
chain: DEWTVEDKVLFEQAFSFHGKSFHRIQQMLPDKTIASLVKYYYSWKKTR

Variants of: B1
Assay: abundance fitness (aPCA) (normalised: wild type 0, dead -1); higher = more abundant; growth selection in yeast, the domain comes from the species named
Conditions: Homo sapiens
Assign True to entries whose abundance fitness meets or exceeds -0.5; assign False to the rest.

Exam item: Kindly determine if abundance fitness recorded for DEWTVEDKVLFEQAFSFHGKSFHRIQQMLPDKTIASLVKVYYSWKKTR [Y40V] is above or exactly -0.5.
Marked response: False

Exam item: Has DEWTVEDKVLFEQAFSFHGKSFHRIQQWLPDKTIASLVKYYYSWKKTR [M28W] a recorded abundance fitness greater than or equal to -0.5?
Marked response: False

Exam item: Has DEWTVEDKVLFEQAFSFHGKSFHRIQQMLPDKTILSLVKYYYSWKKTR [A35L] a recorded abundance fitness greater than or equal to -0.5?
Marked response: True

Exam item: // inclusive: abundance fitness at least -0.5? input: DEWTVEDKVLFEQAFSFHGKSFHRIQQMLPDKTIASLVKPYYSWKKTR [Y40P]
Marked response: True

Exam item: Check this variant for abundance fitness at or above -0.5: DEWTVEDKVMFEQAFSFHGKSFHRIQQMLPDKTIASLVKYYYSWKKTR [L10M]
Marked response: True

Exam item: For this variant, is measured abundance fitness -0.5 or higher? DEWTVEDKVLFEQAFSFHGKSFHRIQQMLPDKTIASLDKYYYSWKKTR [V38D]
Marked response: False

Exam item: Confirm if abundance fitness reported for the variant DEWTVEDKVLFEQAFSFHGKSFHRIQQSLPDKTIASLVKYYYSWKKTR [M28S] is -0.5 or above.
Marked response: False

Exam item: // inclusive: abundance fitness at least -0.5? input: DEWTVEDKVLFEQAFSFHGKSFHRIQQMGPDKTIASLVKYYYSWKKTR [L29G]
Marked response: False

Exam item: In plain terms: is recorded abundance fitness at least -0.5 for DEWTVEDKVLFEQAFSFHGKSFHRIQQMLPDKTIASLVKYYYVWKKTR [S43V] ?
Marked response: True

Exam item: Could you tell me if the measured abundance fitness of DEWTVEDKVLFEQAFSFSGKSFHRIQQMLPDKTIASLVKYYYSWKKTR [H18S] reaches -0.5 or more?
Marked response: False

Exam item: Could you tell me if the measured abundance fitness of DEWTVEDKVLFEQAFSFHGKSFHRIQQMLPDKTRASLVKYYYSWKKTR [I34R] reaches -0.5 or more?
Marked response: True

Exam item: // inclusive: abundance fitness at least -0.5? input: DEWTVEDKVLFEQAFSFHGKSFHRIQQMLPDKTIASLVKYYYSWVKTR [K45V]
Marked response: True

Exam item: In plain terms: is recorded abundance fitness at least -0.5 for DEWTVEDVVLFEQAFSFHGKSFHRIQQMLPDKTIASLVKYYYSWKKTR [K8V] ?
Marked response: False

Exam item: Answer whether abundance fitness of DEWTVEDKVLFEQAFSFHGKSFHRIQQMLPDKTIASLAKYYYSWKKTR [V38A] is greater than or equal to -0.5.
Marked response: True

Exam item: Kindly determine if abundance fitness recorded for DEWTVEDKVLFEQAFSFHGKSFHRIQQMLPDETIASLVKYYYSWKKTR [K32E] is above or exactly -0.5.
Marked response: False

Exam item: Dear colleague, could you confirm whether DEWTVEDKVLFEQAFSFHGKSFHRPQQMLPDKTIASLVKYYYSWKKTR [I25P] has abundance fitness at or above -0.5?
Marked response: False

Exam item: abundance fitness >= -0.5 for DEWTVEDKVLFEQAFSFHGKSFHRIQQMLPDKTIASLVKYYYMWKKTR [S43M] ?
Marked response: False

Exam item: Threshold query (abundance fitness >= -0.5) on DEWTVEDKVLFEQAFSFHGKSFHRIFQMLPDKTIASLVKYYYSWKKTR [Q26F]
Marked response: False

Exam item: Is reported abundance fitness greater than or equal to -0.5 here: DEWTVEDKVLFEQAKSFHGKSFHRIQQMLPDKTIASLVKYYYSWKKTR [F15K]
Marked response: False

Exam item: Item DLWTVEDKVLFEQAFSFHGKSFHRIQQMLPDKTIASLVKYYYSWKKTR [E2L] with abundance fitness of -0.5 or above?
Marked response: False

Exam item: Please indicate if the recorded abundance fitness for DEWTVEDKVLFEQAFSFHGKSFHRIQQMLPDKTIMSLVKYYYSWKKTR [A35M] meets or exceeds -0.5.
Marked response: True

Exam item: Kindly determine if abundance fitness recorded for DEWTVEDKVLFEQAFYFHGKSFHRIQQMLPDKTIASLVKYYYSWKKTR [S16Y] is above or exactly -0.5.
Marked response: True

Exam item: API: above_or_equal(metric=abundance fitness, cutoff=-0.5) for item DEWTVEDKVLFEQAFSFHGKSFHRIQQMLPDKTIASLVKYYYKWKKTR [S43K]
Marked response: True

Exam item: Hello, I need to know if DEWTVEDKVLFEQAFSFHGKVFHRIQQMLPDKTIASLVKYYYSWKKTR [S21V] has measured abundance fitness not below -0.5. Thanks!
Marked response: True

Exam item: Kindly determine if abundance fitness recorded for DEWTVEDKVLFEQAFSFHGKSFHRIQQMLPDKTIASLVKYYYAWKKTR [S43A] is above or exactly -0.5.
Marked response: True

Exam item: Given the entry DEWTVEDKVLFEQAFSFYGKSFHRIQQMLPDKTIASLVKYYYSWKKTR [H18Y] , answer whether its abundance fitness meets or surpasses -0.5.
Marked response: True

Exam item: Entry DEWTVEDKVLFEQAFSFHGKSFHRIQQMLPDKTIASLVKYYYSWKKLR [T47L] : is its abundance fitness no less than -0.5?
Marked response: True

Exam item: Is abundance fitness for DEWTVEDKVLFEQAFSFHGKSFHRIQQMLPVKTIASLVKYYYSWKKTR [D31V] at or above -0.5?
Marked response: False

Exam item: Dear colleague, could you confirm whether DEWTVEDKVLFEQAFSWHGKSFHRIQQMLPDKTIASLVKYYYSWKKTR [F17W] has abundance fitness at or above -0.5?
Marked response: False

Exam item: Tell me whether abundance fitness is at least -0.5 here: DEWTVEDKVLFEQAFSFHGKSMHRIQQMLPDKTIASLVKYYYSWKKTR [F22M]
Marked response: False

Exam item: Is reported abundance fitness greater than or equal to -0.5 here: DEWTVEDKVLFEQAFSFHGKSFHRIQQMLPDKPIASLVKYYYSWKKTR [T33P]
Marked response: True

Exam item: Please check the record DEWTVEDKVLFEQAFSFHGKSFHRIQQMLPDKTIASLVKYYYSWAKTR [K45A] and state if its abundance fitness is at or above -0.5.
Marked response: True

Exam item: Item DEWTVEDKVLFEQRFSFHGKSFHRIQQMLPDKTIASLVKYYYSWKKTR [A14R] with abundance fitness of -0.5 or above?
Marked response: False
